Experimental system: T1, human CD71 extracellular domain (human, UniProt P02786 89-760, biotinylated)
T1 construct: extracellular domain; also called hCD71; huCD71 ECD
T1 sequence (P02786 other isoform, or with tags, fused parts or gaps): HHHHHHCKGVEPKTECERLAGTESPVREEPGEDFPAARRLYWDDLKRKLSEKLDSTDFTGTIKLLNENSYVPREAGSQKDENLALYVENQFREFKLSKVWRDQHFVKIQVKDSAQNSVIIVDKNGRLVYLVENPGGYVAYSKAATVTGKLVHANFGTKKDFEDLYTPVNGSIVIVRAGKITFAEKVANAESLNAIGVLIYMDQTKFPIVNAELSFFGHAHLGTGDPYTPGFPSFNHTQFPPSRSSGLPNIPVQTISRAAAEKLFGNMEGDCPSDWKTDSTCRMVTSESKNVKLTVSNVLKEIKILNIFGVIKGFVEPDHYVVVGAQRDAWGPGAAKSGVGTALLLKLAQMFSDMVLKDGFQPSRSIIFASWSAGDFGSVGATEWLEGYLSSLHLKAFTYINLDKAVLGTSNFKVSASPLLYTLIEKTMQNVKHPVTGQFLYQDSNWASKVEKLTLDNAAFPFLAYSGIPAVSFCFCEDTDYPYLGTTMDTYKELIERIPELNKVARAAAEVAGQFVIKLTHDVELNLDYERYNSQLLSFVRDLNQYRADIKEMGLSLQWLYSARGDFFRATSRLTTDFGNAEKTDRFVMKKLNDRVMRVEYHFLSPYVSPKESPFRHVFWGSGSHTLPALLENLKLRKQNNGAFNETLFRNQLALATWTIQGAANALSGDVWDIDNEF
Experiment summary: solution ELISA screen, signal ratio to HSA control
Property label: hCD71:HSA (ratio)

Worked examples, 2 binders total:
# input Give me measured hCD71:HSA, please, for this binder: SEQ ID NO 209 (designed binder, not shown: small tags and cut ends, also called ABX1198) MLPAPKNLVVSRVTEDSARLSWTAPDAAFDSFYIAYAEPRPDGEAILLQVPGSCRSYDLTGLKPGTEYSVLIHGVKGGLLSSPLTAIFTT
# output 348

# input Give me measured hCD71:HSA, please, for this binder: SEQ ID NO 224 (designed binder, not shown: small tags and cut ends) MLPAPKNLVVSRVTEDSARLSWTAPDAAFDSFYIAYAEPRPDGEAILLRVPGSERSYDLTGLKPGTEYSVLIHGVKGGLLSSPLVAEFTT
# output 136

(P) SEQ ID NO 264 (designed binder, not shown: small tags and cut ends) MLPAPKNLVVSRVTEDSARLSWTAPDAAFDSFYIAYAEPRPDGEAINLSVPGSERSYDLTGLKPGTEYSVLIHGVKGGLLSSPLDAYFTT
(Q) SEQ ID NO 258 (designed binder, not shown: small tags and cut ends) MLPAPKNLVVSRVTEDSARLSWTAPDAAFDSFYIAYAEPRPDGEAILLEVPGSERSYDLTGLKPGTEYSVLIHGVKGGLLSSPLVAFFTT
# input // select label with min value of measured hCD71:HSA from [ P , Q ] Lab note: record the label of whichever item you select.
# output P
